Assay overview: in vitro
Assay setup: African green monkey, VeroE6 + CP (CC50), Vero E6-eGFP cells with CP-100356, absence of virus, MTS; numeric bounds
Test readout: CC50

Worked examples, 2 compounds total:
COc1cccc2[nH]c(C(=O)N3C[C@H]4[C@@H]([C@H]3C(=O)N[C@@H](C[C@@H]3CCNC3=O)C(=O)CO)C4(C)C)cc12 [Compound 43]: > 100 µM
O=C1NCC[C@H]1C[C@H](NC(=O)[C@@H]1[C@H]2CCC[C@H]2CN1C(=O)c1cc2c(Cl)c(F)cc(Cl)c2[nH]1)C(=O)CO [Compound 122]: > 50 µM

Turning to the following compound.
Field request: CC50 | item: O=C(NCc1ccccc1)C(=O)[C@H](C[C@@H]1CCNC1=O)NC(=O)[C@@H]1C[C@@]2(CN1C(=O)c1cc3ccccc3[nH]1)CC2(F)F [Compound 23]
> 100 µM

* * *

Assay overview: in vitro
Assay setup: African green monkey, VeroE6 + CP (CC50), Vero E6-eGFP cells with CP-100356, absence of virus, MTS; class symbols
Test readout: CC50

COc1cccc2[nH]c(C(=O)N3C[C@H](C(F)(F)F)C[C@H]3C(=O)N[C@@H](C[C@@H]3CCCNC3=O)C(=O)COCc3ccccc3)cc12 [Compound 45A]: > 10 µM
COc1cccc2[nH]c(C(=O)N3C[C@@H]4CCC[C@@H]4[C@H]3C(=O)N[C@@H](C[C@@H]3CCNC3=O)C(=O)C(=O)NCCOCc3ccccc3)cc12: > 10 µM

Read the next record carefully.
Request the reported CC50 associated with CC(C)COCCNC(=O)C(=O)[C@H](C[C@@H]1CCNC1=O)NC(=O)[C@@H]1[C@H]2CCC[C@H]2CN1C(=O)c1cc2c(Cl)cc(Cl)cc2[nH]1
> 10 µM

* * *

Measured target: HRV3C (Human rhinovirus 14, UniProt P03303)
Assay overview: HRV3C protease assay (duplex, SAMDI-MS)
Type: biochemical, HRV
Assay setup: HRV IC50, HRV3C, 30 mins preincubation, class symbols
pIC50: −log10 of the molar value.
Test readout: pIC50

Consider the reported pIC50 for these molecules:
O=C(NCc1ccccc1)C(=O)C(C[C@@H]1CCNC1=O)NC(=O)[C@@H]1C[C@@H](Oc2ccccc2)CN1C(=O)c1cc2ccccc2[nH]1 (stereo partly drawn): 5.70 to 6.70
COc1cccc2[nH]c(C(=O)N3C[C@@H]4CCC[C@@H]4[C@H]3C(=O)N[C@@H](CC3CC(C)(C)NC3=O)C(=O)C(=O)NC3CC3)cc12 (single isomer, unassigned): 5.70 to 6.70
COCCNC(=O)C(=O)[C@H](C[C@@H]1CCNC1=O)NC(=O)[C@@H]1[C@H]2CCC[C@H]2CN1C(=O)c1cc2c(OC)cccc2[nH]1: 5.70 to 6.70
O=C(NC1CC1)C(=O)[C@H](C[C@@H]1CCNC1=O)NC(=O)[C@@H]1CC2(CCN1C(=O)c1cc3ccccc3[nH]1)CC2: 4.70 to 5.70
COc1cccc2[nH]c(C(=O)N3C[C@@H]4CCC[C@@H]4[C@H]3C(=O)N[C@@H](C[C@@H]3CCCNC3=O)C(O)S(=O)(=O)O)cc12 (stereo partly drawn): 6.70 to 7.70
O=C(NCc1ccccc1)C(=O)C(C[C@@H]1CCNC1=O)NC(=O)[C@@H]1C[C@@H](OCc2ccccc2)CN1C(=O)c1cc2ccccc2[nH]1 (stereo partly drawn): 5.70 to 6.70
COc1ccc2[nH]c(C(=O)N3CCC4(CC4)C[C@H]3C(=O)N[C@@H](C[C@@H]3CCNC3=O)C(=O)C(=O)NC3CC3)cc2c1: 4.70 to 5.70
Cn1ccc2[nH]c(C(=O)N3C[C@@H]4CCC[C@@H]4[C@H]3C(=O)N[C@@H](C[C@@H]3CCNC3=O)C(=O)CO)cc2c1=O: 4.70 to 5.70
C=CC[C@@H]1C[C@@H](C(=O)N[C@@H](C[C@@H]2CCNC2=O)C(=O)C(=O)NCc2ccccc2)N(C(=O)c2cc3ccccc3[nH]2)C1: 4.70 to 5.70
O=C1NCCC[C@H]1C[C@H](NC(=O)[C@@H]1[C@H]2CCC[C@H]2CN1C(=O)c1cc2ccccc2[nH]1)C(O)S(=O)(=O)O (stereo partly drawn): 6.70 to 7.70

Name the recorded pIC50 for O=C(NCc1ccccc1)C(=O)C(C[C@@H]1CCNC1=O)NC(=O)[C@@H]1CCCCN1C(=O)c1cc2ccccc2[nH]1 (stereo partly drawn) .
4.00 to 4.70

Could you tell me which pIC50 is on file for CC(C)(C)O[C@@H]1C[C@@H](C(=O)NC(C[C@@H]2CCNC2=O)C(=O)C(=O)NCc2ccccc2)N(C(=O)c2cc3ccccc3[nH]2)C1 (stereo partly drawn) ?
5.70 to 6.70

* * *

System: SARS-CoV-2-GHB-03021/2020
Assay overview: microbe, parasite or virus in culture
Type: cell-based
Assay setup: Severe acute respiratory syndrome coronavirus 2, Vero C1008, 96 h; read-out: VeroE6 + CP (EC50)
Recorded EC50 values for a group of compounds are listed next.

Field: example entries. Status: answers known.
COc1cccc2[nH]c(C(=O)N3C[C@]4(C[C@H]3C(=O)N[C@@H](C[C@@H]3CCNC3=O)C(=O)CO)CC4(F)F)cc12: 1 to 10 µM
COc1cccc2[nH]c(C(=O)N3C[C@H](C(F)(F)F)C[C@H]3C(=O)N[C@@H](C[C@@H]3CCCNC3=O)C(=O)CO)cc12: < 1 µM

Data request, read-out EC50, for CC(C)CCCNC(=O)C(=O)[C@H](C[C@@H]1CCNC1=O)NC(=O)[C@@H]1[C@H]2CCC[C@H]2CN1C(=O)c1cc2c(Cl)cc(Cl)cc2[nH]1
< 1 µM

Look at this compound and give its reported EC50. C[C@@H]1C[C@@H](C(=O)N[C@@H](C[C@@H]2CCNC2=O)C(=O)C(=O)NCc2ccccc2)N(C(=O)c2cc3ccccc3[nH]2)C1
10 to 100 µM

Bench note: what EC50 did O=C1NCC[C@H]1C[C@H](NC(=O)[C@@H]1[C@H]2CCC[C@H]2CN1C(=O)c1cc2c(Cl)cc(Oc3ccccc3)cc2[nH]1)C(=O)CO show?
< 1 µM

Any idea what EC50 was measured for O=C(NC1CC1)C(=O)[C@H](C[C@@H]1CCNC1=O)NC(=O)[C@@H]1CC2(CCN1C(=O)c1cc3ccccc3s1)CC2 ?
< 1 µM

* * *

Measured target: HRV3C (Human rhinovirus 14, UniProt P03303)
Assay overview: HRV3C protease assay (duplex, SAMDI-MS)
Type: biochemical, HRV
Assay setup: HRV IC50, HRV3C, 30 mins preincubation, class symbols
pIC50: −log10 of the molar value.
The entries below come with measured pIC50 values attached.

// below: answered compounds
O=C1NCC[C@H]1C[C@H](NC(=O)[C@@H]1[C@H]2CCC[C@H]2CN1C(=O)c1cc(-c2ccccc2)c[nH]1)C(=O)CO [Compound 79]: 4.70 to 5.70
CC(C)COCCNC(=O)C(=O)[C@H](C[C@@H]1CCNC1=O)NC(=O)[C@@H]1[C@H]2CCC[C@H]2CN1C(=O)c1cc2c(Cl)cc(Cl)cc2[nH]1 [Compound 149]: 4.70 to 5.70
O=C1NCC[C@H]1C[C@H](NC(=O)[C@@H]1[C@H]2CCC[C@H]2CN1C(=O)c1cc2c(=O)[nH]ccc2[nH]1)C(=O)CO [Compound 76]: 5.70 to 6.70
CO[C@@H]1C[C@@H](C(=O)NC(C[C@@H]2CCNC2=O)C(=O)C(=O)NCc2ccccc2)N(C(=O)c2cc3ccccc3[nH]2)C1 (stereo partly shown) [Compound 12]: 4.00 to 4.70
O=C1NCC[C@H]1C[C@H](NC(=O)[C@@H]1[C@H]2CCC[C@H]2CN1C(=O)c1cc2ccsc2[nH]1)C(=O)CO [Compound 80]: 4.70 to 5.70

// returns reported pIC50 for input COc1cccc2[nH]c(C(=O)N3Cc4ccccc4C[C@H]3C(=O)N[C@@H](C[C@@H]3CCNC3=O)C(=O)C(=O)NC3CC3)cc12 [Compound 97]
6.70 to 7.70

May I ask what pIC50 has been recorded for O=C1NCC[C@H]1C[C@H](NC(=O)[C@@H]1[C@H]2[C@H]3CC[C@H](C3)[C@H]2CN1C(=O)c1cc2c(Cl)cc(Cl)cc2[nH]1)C(=O)CO [Compound 135] ?
4.70 to 5.70

* * *

Measured pIC50 accompanies every entry in the list below.
Measured target: human cathepsin L (Homo sapiens, UniProt P07711)
Construct: purchased R&D Systems
Assay overview: cathepsin L assay
Format: biochemical
Assay setup: 10 pM human cathepsin L, Z-FR-AMC 2 μM, class symbols
pIC50: −log10 of the molar value.

Recorded results for 4 molecules are shown here.
COc1cccc2[nH]c(C(=O)N3C[C@@H]4CCC[C@@H]4[C@H]3C(=O)N[C@@H](C[C@@H]3CCNC3=O)C(=O)c3nc4ccccc4[nH]3)cc12: ≤ 5.00
COc1cccc2[nH]c(C(=O)N3C[C@H]4CCCC[C@H]4[C@@H]3C(=O)N[C@@H](C[C@@H]3CCCNC3=O)C(=O)CO)cc12: ≤ 5.00
COc1cccc2[nH]c(C(=O)N3C[C@@H]4CCC[C@@H]4[C@H]3C(=O)N[C@@H](C[C@@H]3CCNC3=O)C(=O)C(=O)N[C@@H]3CCOC3)cc12: ≤ 5.00
COc1ccc2[nH]c(C(=O)N3C[C@@H]4CCC[C@@H]4[C@H]3C(=O)N[C@@H](C[C@@H]3CCNC3=O)C(=O)CO)cc2c1OC: ≤ 5.00

Quick check: pIC50 of CC(=O)c1c[nH]c(C(=O)N2C[C@@H]3CCC[C@@H]3[C@H]2C(=O)N[C@@H](C[C@@H]2CCNC2=O)C(=O)CO)c1 ?
≤ 5.00

Quick check: pIC50 of COc1cccc2[nH]c(C(=O)N3C[C@@H]4CCCC[C@@H]4[C@H]3C(=O)N[C@@H](C[C@@H]3CCCNC3=O)C(=O)CO)cc12 ?
≤ 5.00

For COc1cccc2[nH]c(C(=O)N3C[C@H](C(F)(F)F)C[C@H]3C(=O)N[C@@H](C[C@@H]3CCCNC3=O)C(=O)CO)cc12 , what is its reported pIC50?
≤ 5.00

Look up pIC50: CC(C)OCCNC(=O)C(=O)[C@H](C[C@@H]1CCNC1=O)NC(=O)[C@@H]1[C@H]2CCC[C@H]2CN1C(=O)c1cc2c(Cl)cc(Cl)cc2[nH]1
≤ 5.00
